- Measured Target: Bile salt export pump (Homo sapiens, UniProt O95342, E297G)
- Sequence (O95342 whole entry E297G): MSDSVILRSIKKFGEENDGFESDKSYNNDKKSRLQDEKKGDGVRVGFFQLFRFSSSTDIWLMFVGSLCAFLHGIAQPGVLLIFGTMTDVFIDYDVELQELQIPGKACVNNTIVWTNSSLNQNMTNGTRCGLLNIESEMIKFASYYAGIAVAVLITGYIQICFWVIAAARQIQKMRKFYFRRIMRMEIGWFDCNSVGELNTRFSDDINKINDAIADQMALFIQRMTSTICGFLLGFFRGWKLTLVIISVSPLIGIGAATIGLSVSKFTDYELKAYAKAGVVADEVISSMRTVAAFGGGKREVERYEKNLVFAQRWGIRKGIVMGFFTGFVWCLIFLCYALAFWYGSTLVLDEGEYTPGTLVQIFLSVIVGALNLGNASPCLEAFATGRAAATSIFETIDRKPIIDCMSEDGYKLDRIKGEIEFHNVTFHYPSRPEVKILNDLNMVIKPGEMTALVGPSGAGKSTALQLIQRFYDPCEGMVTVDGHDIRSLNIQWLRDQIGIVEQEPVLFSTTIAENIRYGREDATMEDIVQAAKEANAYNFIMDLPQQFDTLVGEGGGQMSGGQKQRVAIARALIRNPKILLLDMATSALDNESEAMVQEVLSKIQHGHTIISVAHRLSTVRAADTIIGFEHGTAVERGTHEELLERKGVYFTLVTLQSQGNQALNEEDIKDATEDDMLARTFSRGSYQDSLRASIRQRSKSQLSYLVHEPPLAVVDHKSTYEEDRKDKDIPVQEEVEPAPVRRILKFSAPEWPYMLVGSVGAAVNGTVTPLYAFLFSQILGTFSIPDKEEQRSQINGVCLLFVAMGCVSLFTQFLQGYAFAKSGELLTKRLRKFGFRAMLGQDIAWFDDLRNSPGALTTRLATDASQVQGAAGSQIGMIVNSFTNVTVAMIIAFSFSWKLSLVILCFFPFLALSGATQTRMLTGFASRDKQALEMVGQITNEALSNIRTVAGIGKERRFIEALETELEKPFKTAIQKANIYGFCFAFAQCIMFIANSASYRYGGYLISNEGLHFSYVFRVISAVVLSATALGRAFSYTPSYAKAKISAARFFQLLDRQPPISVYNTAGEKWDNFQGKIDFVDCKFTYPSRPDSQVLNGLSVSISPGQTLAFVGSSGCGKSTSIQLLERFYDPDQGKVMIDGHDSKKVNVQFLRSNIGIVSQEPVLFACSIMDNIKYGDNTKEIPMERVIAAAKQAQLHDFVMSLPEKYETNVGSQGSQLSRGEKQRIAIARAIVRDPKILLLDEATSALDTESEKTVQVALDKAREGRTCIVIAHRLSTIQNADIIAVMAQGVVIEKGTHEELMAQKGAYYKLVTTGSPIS
- Method: Restoration of human BSEP E297G mutant trafficking to cell membrane in MDCK2 cells co-expressing NTCP assessed as accumulation of [3H]taurocholate at 10 uM preincubated for 24 hrs prior incubation with [3H]taurocholate measured after 2 hrs by liquid scintillation counting
- Format: cell membranes
- Recorded Conditions: mdck2, 2 h
For each entry below, report its Activity value.
Please provide the amount together with its unit, number first.

Challenge: Reported Activity for `CC(C)c1onc(-c2c(Cl)cccc2Cl)c1COc1ccc(C(=O)N(Cc2ccccc2)c2ccccc2C(=O)O)c(Cl)c1` : what is it?
Response given: 80%

Challenge: Follow-up item: `CC(C)c1onc(-c2c(Cl)cccc2Cl)c1COc1ccc(C(=O)N(c2cccc(C(=O)O)c2)c2ccc3ccccc3c2)c(Cl)c1`
Response given: 70%

Challenge: Also `CC(C)c1onc(-c2c(Cl)cccc2Cl)c1COc1ccc(C(=O)N(Cc2ccccc2)c2cccc(C(=O)O)c2)cc1` ?
Response given: 85%

Challenge: And the next one, `CC(C)c1onc(-c2c(Cl)cccc2Cl)c1COc1ccc(C(=O)N(Cc2ccccc2)c2ccc(C(=O)O)cc2)c(Cl)c1` ?
Response given: 35%

Challenge: One more molecule: `Cc1cccc(C)c1-c1noc(C(C)C)c1COc1ccc(C(=O)N(Cc2ccccc2)c2cccc(C(=O)O)c2)c(Cl)c1`
Response given: 93%

Challenge: Ok, now `CC(C)c1onc(-c2c(Cl)cccc2Cl)c1COc1ccc(C(=O)Nc2cccc(C(=O)O)c2)c(Cl)c1`
Response given: 111%

Challenge: Can you handle `CC(C)c1onc(-c2c(Cl)cccc2Cl)c1COc1ccc(C(=O)N(CCc2ccccc2)c2cccc(C(=O)O)c2)c(Cl)c1` next?
Response given: 53%

Challenge: Could you do the same for `CC(C)c1onc(-c2c(Cl)cccc2Cl)c1COc1ccc(C(=O)N(c2cccc(C(=O)O)c2)c2cccc3ccccc23)c(Cl)c1` , please?
Response given: 59%

Challenge: Ok, now `CC(C)c1onc(-c2c(Cl)cccc2Cl)c1COc1ccc(/C=C/c2cccc(C(=O)O)c2)c(Cl)c1`
Response given: 33%

Challenge: Then what about the molecule `CCCCN(C(=O)c1ccc(OCc2c(-c3c(Cl)cccc3Cl)noc2C(C)C)cc1Cl)c1cccc(C(=O)O)c1` ?
Response given: 49%

----------
- Measured Target: Bile salt export pump (Homo sapiens, UniProt O95342, E297G)
- Method: Restoration of human BSEP E297G mutant trafficking to cell membrane in MDCK2 cells co-expressing NTCP assessed as accumulation of [3H]taurocholate at 100 uM preincubated for 24 hrs prior incubation with [3H]taurocholate measured after 2 hrs by liquid scintillation counting
- Format: cell membranes
- Recorded Conditions: mdck2, 2 h
Metric: Activity

Challenge: I'd like to know its Activity. The compound in question is C[C@H](CCC(=O)O)[C@H]1CC[C@H]2[C@@H]3[C@@H](O)C[C@@H]4C[C@H](O)CC[C@]4(C)[C@H]3CC[C@]12C [URSODIOL]
Response given: 43%

Challenge: What do you have for C[C@H](CCC(=O)O)[C@H]1CC[C@H]2[C@@H]3[C@H](O)C[C@@H]4C[C@H](O)CC[C@]4(C)[C@H]3CC[C@]12C [CHENODIOL] ?
Response given: 46%

Challenge: Would you kindly repeat that for C[C@H](CCC(=O)NCC(=O)O)[C@H]1CC[C@H]2[C@@H]3[C@H](O)C[C@@H]4C[C@H](O)CC[C@]4(C)[C@H]3C[C@H](O)[C@]12C [GLYCOCHOLIC ACID] ?
Response given: 108%

Challenge: Also, C[C@H](CCC(=O)O)[C@H]1CC[C@H]2[C@@H]3CC[C@@H]4C[C@H](O)CC[C@]4(C)[C@H]3C[C@H](O)[C@]12C [DEOXYCHOLIC ACID] please.
Response given: 65%

Challenge: Item: C[C@H](CCC(=O)O)[C@H]1CC[C@H]2[C@@H]3[C@H](O)C[C@@H]4C[C@H](O)CC[C@]4(C)[C@H]3C[C@H](O)[C@]12C [CHOLIC ACID]
Response given: 40%

----------
- Measured Target: Bile salt export pump (Homo sapiens, UniProt O95342, E297G)
- Method: Restoration of human BSEP E297G mutant trafficking to cell membrane in MDCK2 cells co-expressing NTCP assessed as accumulation of [3H]taurocholate at 10 uM preincubated for 24 hrs prior incubation with [3H]taurocholate measured after 2 hrs by liquid scintillation counting
- Assay type: cell membranes
- Recorded Conditions: mdck2, 2 h
We use 70% as the dividing line for Activity: on or above the line is true, below is false.

Challenge: Hi, just wondering whether C[C@H](CCC(=O)O)[C@H]1CC[C@H]2[C@@H]3[C@H](O)C[C@@H]4C[C@H](O)CC[C@]4(C)[C@H]3CC[C@]12C [CHENODIOL] shows Activity of 70% or higher.
Response given: false

Challenge: And what about the molecule `COC(=O)c1cccc(N(Cc2ccccc2)C(=O)c2ccc(OCc3c(-c4c(Cl)cccc4Cl)noc3C(C)C)cc2Cl)c1` ?
Response given: true

Challenge: Let us now turn to C[C@H](CCC(=O)O)[C@H]1CC[C@H]2[C@@H]3[C@H](O)C[C@@H]4C[C@H](O)CC[C@]4(C)[C@H]3C[C@H](O)[C@]12C [CHOLIC ACID]
Response given: true

Challenge: // query: `CC(C)c1onc(-c2c(Cl)cccc2Cl)c1COc1ccc(C(=O)N(C)c2cccc(C(=O)O)c2)c(Cl)c1`
Response given: false

Challenge: Follow-up item: `CC(C)c1onc(-c2ccccc2)c1COc1ccc(C(=O)N(Cc2ccccc2)c2cccc(C(=O)O)c2)c(Cl)c1`
Response given: false
